# Test system: Staphylococcus aureus
# assay notes: Antibacterial activity against Staphylococcus aureus CMCC (B) 26003 after 24 to 48 hrs by agar dilution method
# Format: functional
Each item that follows carries a reported MIC.
readout type: MIC

1. C=C[C@]1(C)C[C@@H](OC(=O)CSc2nc(N)cc(NC(=O)CN(C)C)n2)[C@]2(C)[C@H](C)CC[C@]3(CCC(=O)[C@H]32)[C@@H](C)[C@@H]1O
0.25 µg/mL
2. C=C[C@]1(C)C[C@@H](OC(=O)CSc2nc(N)cc(NC(=O)CN3CCC[C@@H](CO)C3)n2)[C@]2(C)[C@H](C)CC[C@]3(CCC(=O)[C@H]32)[C@@H](C)[C@@H]1O
0.0625 µg/mL
3. C=C[C@]1(C)C[C@@H](OC(=O)CSc2nc(N)cc(NC(=O)CN3CCOCC3)n2)[C@]2(C)[C@H](C)CC[C@]3(CCC(=O)[C@H]32)[C@@H](C)[C@@H]1O
0.125 µg/mL
4. C=C[C@]1(C)C[C@@H](OC(=O)CSCCN(CC)CC)[C@]2(C)[C@H](C)CC[C@]3(CCC(=O)[C@H]32)[C@@H](C)[C@@H]1O [TIAMULIN]
0.0625 µg/mL
5. C=C[C@]1(C)C[C@@H](OC(=O)CSc2nc(N)cc(NC(=O)CN(CC)CC)n2)[C@]2(C)[C@H](C)CC[C@]3(CCC(=O)[C@H]32)[C@@H](C)[C@@H]1O
0.125 µg/mL
6. C=C[C@]1(C)C[C@@H](OC(=O)CSc2nc(N)cc(NC(=O)CN3CCCCC3)n2)[C@]2(C)[C@H](C)CC[C@]3(CCC(=O)[C@H]32)[C@@H](C)[C@@H]1O
0.25 µg/mL

====

# System: Staphylococcus aureus
# assay notes: Antibacterial activity against […] Staphylococcus aureus ATCC 29213 after 24 to 48 hrs by agar dilution method
# Type: functional
readout type: MIC (µg/mL)

1) C=C[C@]1(C)C[C@@H](OC(=O)CSc2nc(N)cc(NC(=O)CN(C)C)n2)[C@]2(C)[C@H](C)CC[C@]3(CCC(=O)[C@H]32)[C@@H](C)[C@@H]1O
1
2) C=C[C@]1(C)C[C@@H](OC(=O)CSc2nc(N)cc(NC(=O)CN3CCCC3)n2)[C@]2(C)[C@H](C)CC[C@]3(CCC(=O)[C@H]32)[C@@H](C)[C@@H]1O
0.5
3) C=C[C@]1(C)C[C@@H](OC(=O)CSc2nc(N)cc(NC(=O)CN3CCOCC3)n2)[C@]2(C)[C@H](C)CC[C@]3(CCC(=O)[C@H]32)[C@@H](C)[C@@H]1O
0.25

====

# System: Escherichia coli
# assay notes: Antibacterial activity against Escherichia coli CMCC (B) 44102 after 24 to 48 hrs by agar dilution method
# Type: functional
readout type: MIC

1) C=C[C@]1(C)C[C@@H](OC(=O)CSc2nc(N)cc(NC(=O)CN3CCC(CCO)CC3)n2)[C@]2(C)[C@H](C)CC[C@]3(CCC(=O)[C@H]32)[C@@H](C)[C@@H]1O
8 µg/mL
2) C=C[C@]1(C)C[C@@H](OC(=O)CSc2nc(N)cc(NC(=O)CN(C)C)n2)[C@]2(C)[C@H](C)CC[C@]3(CCC(=O)[C@H]32)[C@@H](C)[C@@H]1O
8 µg/mL
3) C=C[C@]1(C)C[C@@H](OC(=O)CSCCN(CC)CC)[C@]2(C)[C@H](C)CC[C@]3(CCC(=O)[C@H]32)[C@@H](C)[C@@H]1O
4 µg/mL
4) C=C[C@]1(C)C[C@@H](OC(=O)CSc2nc(N)cc(NC(=O)CN3CCC[C@@H](CO)C3)n2)[C@]2(C)[C@H](C)CC[C@]3(CCC(=O)[C@H]32)[C@@H](C)[C@@H]1O
4 µg/mL
5) C=C[C@]1(C)C[C@@H](OC(=O)CSc2nc(N)cc(NC(=O)CN3CC[C@H](O)C3)n2)[C@]2(C)[C@H](C)CC[C@]3(CCC(=O)[C@H]32)[C@@H](C)[C@@H]1O
8 µg/mL
6) C=C[C@]1(C)C[C@@H](OC(=O)CSc2nc(N)cc(NC(=O)CN3CCOCC3)n2)[C@]2(C)[C@H](C)CC[C@]3(CCC(=O)[C@H]32)[C@@H](C)[C@@H]1O
4 µg/mL
7) C=C[C@]1(C)C[C@@H](OC(=O)CSc2nc(N)cc(NC(=O)CN3CCCC3)n2)[C@]2(C)[C@H](C)CC[C@]3(CCC(=O)[C@H]32)[C@@H](C)[C@@H]1O
4 µg/mL
8) C=C[C@]1(C)C[C@@H](OC(=O)CSc2nc(N)cc(N)n2)[C@]2(C)[C@H](C)CC[C@]3(CCC(=O)[C@H]32)[C@@H](C)[C@@H]1O
2 µg/mL
